// provenance: ChEMBL document CHEMBL4433205

Target: Delta-type opioid receptor (Rattus norvegicus, UniProt P33533)
Sequence (P33533 whole entry): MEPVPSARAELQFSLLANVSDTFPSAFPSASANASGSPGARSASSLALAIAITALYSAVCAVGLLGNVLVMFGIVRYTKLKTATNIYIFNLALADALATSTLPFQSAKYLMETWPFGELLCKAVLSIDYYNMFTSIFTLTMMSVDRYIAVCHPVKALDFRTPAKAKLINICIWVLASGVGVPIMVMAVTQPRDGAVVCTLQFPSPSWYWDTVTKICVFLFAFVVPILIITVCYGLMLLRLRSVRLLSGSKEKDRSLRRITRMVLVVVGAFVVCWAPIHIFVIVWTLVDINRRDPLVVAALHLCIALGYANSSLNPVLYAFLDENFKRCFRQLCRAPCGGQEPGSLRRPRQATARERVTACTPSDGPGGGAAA
Test: Displacement of [3H]diprenorphine from rat delta opioid receptor expressed in rat C6 cell membranes measured after 1 hr by liquid scintillation counting method
Each entry falls into one class according to its Ki; the ranges are bin 0 (below 0.4 nM), bin 1 (0.4 nM to below 1 nM), bin 2 (1 nM or more)

STRUCTURE_STRING: CC(=O)N1CC[C@@H](NC(=O)[C@@H](N)Cc2c(C)cc(O)cc2C)c2cc(CN3CCc4ccccc4C3)ccc21.O=C(O)C(F)(F)F
ASSAYED_SYSTEM: Delta-type opioid receptor (Rattus norvegicus, UniProt P33533)
ASSIGNED_CLASS: bin 1

STRUCTURE_STRING: Cc1cc(O)cc(C)c1C[C@H](N)C(=O)N[C@@H]1CCN(C(=O)c2ccccc2)c2ccc(CN3CCc4ccccc4C3)cc21.O=C(O)C(F)(F)F
ASSAYED_SYSTEM: Delta-type opioid receptor (Rattus norvegicus, UniProt P33533)
ASSIGNED_CLASS: bin 2

STRUCTURE_STRING: Cc1cc(O)cc(C)c1C[C@H](N)C(=O)N[C@@H]1CCN(C(=O)c2ccccc2)c2ccc(Cc3ccc4c(c3)OCCO4)cc21.O=C(O)C(F)(F)F
ASSAYED_SYSTEM: Delta-type opioid receptor (Rattus norvegicus, UniProt P33533)
ASSIGNED_CLASS: bin 0

STRUCTURE_STRING: Cc1cc(O)cc(C)c1C[C@H](N)C(=O)N[C@@H]1CCNc2ccc(Cc3cnc4ccccc4c3)cc21.O=C(O)C(F)(F)F
ASSAYED_SYSTEM: Delta-type opioid receptor (Rattus norvegicus, UniProt P33533)
ASSIGNED_CLASS: bin 2

STRUCTURE_STRING: Cc1cc(O)cc(C)c1C[C@H](N)C(=O)N[C@@H]1CCN(C(=O)C2CC2)c2ccc(Cc3ccc4c(c3)OCCO4)cc21.O=C(O)C(F)(F)F
ASSAYED_SYSTEM: Delta-type opioid receptor (Rattus norvegicus, UniProt P33533)
ASSIGNED_CLASS: bin 0

STRUCTURE_STRING: CC(=O)N1CC[C@@H](NC(=O)[C@@H](N)Cc2c(C)cc(O)cc2C)c2cc(Cc3cnc4ccccc4c3)ccc21.O=C(O)C(F)(F)F
ASSAYED_SYSTEM: Delta-type opioid receptor (Rattus norvegicus, UniProt P33533)
ASSIGNED_CLASS: bin 0

STRUCTURE_STRING: Cc1cc(O)cc(C)c1C[C@H](N)C(=O)N[C@@H]1CCN(C(=O)C2CC2)c2ccc(Cc3ccc4ccccc4c3)cc21
ASSAYED_SYSTEM: Delta-type opioid receptor (Rattus norvegicus, UniProt P33533)
ASSIGNED_CLASS: bin 0

STRUCTURE_STRING: Cc1cc(O)cc(C)c1C[C@H](N)C(=O)N[C@@H]1CCN(C(=O)C2CC2)c2ccc(Cc3cnc4ccccc4c3)cc21.O=C(O)C(F)(F)F
ASSAYED_SYSTEM: Delta-type opioid receptor (Rattus norvegicus, UniProt P33533)
ASSIGNED_CLASS: bin 0

STRUCTURE_STRING: Cc1cc(O)cc(C)c1C[C@H](N)C(=O)N[C@@H]1CCN(C(=O)C2CC2)c2ccc(Cc3cc4ccccc4o3)cc21.O=C(O)C(F)(F)F
ASSAYED_SYSTEM: Delta-type opioid receptor (Rattus norvegicus, UniProt P33533)
ASSIGNED_CLASS: bin 0

STRUCTURE_STRING: CC(=O)N1CC[C@@H](NC(=O)[C@@H](N)Cc2c(C)cc(O)cc2C)c2cc(Cc3ccc4c(c3)OCCO4)ccc21.O=C(O)C(F)(F)F
ASSAYED_SYSTEM: Delta-type opioid receptor (Rattus norvegicus, UniProt P33533)
ASSIGNED_CLASS: bin 1

STRUCTURE_STRING: Cc1cc(O)cc(C)c1C[C@H](N)C(=O)N[C@@H]1CCNc2ccc(Cc3cc4ccccc4o3)cc21.O=C(O)C(F)(F)F
ASSAYED_SYSTEM: Delta-type opioid receptor (Rattus norvegicus, UniProt P33533)
ASSIGNED_CLASS: bin 2

STRUCTURE_STRING: Cc1cc(O)cc(C)c1C[C@H](N)C(=O)N[C@@H]1CCN(C(=O)C2CC2)c2ccc(CN3CCc4ccccc4C3)cc21.O=C(O)C(F)(F)F
ASSAYED_SYSTEM: Delta-type opioid receptor (Rattus norvegicus, UniProt P33533)
ASSIGNED_CLASS: bin 1

STRUCTURE_STRING: Cc1cc(O)cc(C)c1C[C@H](N)C(=O)N[C@@H]1CCNc2ccc(CN3CCc4ccccc4C3)cc21.O=C(O)C(F)(F)F
ASSAYED_SYSTEM: Delta-type opioid receptor (Rattus norvegicus, UniProt P33533)
ASSIGNED_CLASS: bin 2

----------
Molecular target: Kappa-type opioid receptor (Homo sapiens, UniProt P41145)
Sequence (P41145 whole entry): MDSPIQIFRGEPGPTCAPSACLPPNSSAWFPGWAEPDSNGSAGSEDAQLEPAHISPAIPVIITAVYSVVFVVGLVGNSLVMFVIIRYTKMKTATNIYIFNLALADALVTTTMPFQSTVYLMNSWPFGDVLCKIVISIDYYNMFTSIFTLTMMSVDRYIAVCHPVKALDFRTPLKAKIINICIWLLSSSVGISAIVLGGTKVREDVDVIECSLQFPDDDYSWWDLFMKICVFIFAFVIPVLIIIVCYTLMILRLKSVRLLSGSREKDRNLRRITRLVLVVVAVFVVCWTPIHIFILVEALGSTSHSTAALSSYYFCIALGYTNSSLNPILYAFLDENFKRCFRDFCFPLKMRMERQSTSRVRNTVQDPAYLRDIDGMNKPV
Assay: Agonist activity at human kappa opioid receptor expressed in CHO cell membranes assessed as stimulation of [35S]GTPgammaS binding to G protein incubated for 1 hr relative to U69,593
Format: functional
The source made the active and inactive calls. No cut-off for these calls is given here.

STRUCTURE_STRING: Cc1cc(O)cc(C)c1C[C@H](N)C(=O)N[C@@H]1CCN(C(=O)C2CC2)c2ccc(Cc3ccc4ccccc4c3)cc21
Efficacy: 38%
//
STRUCTURE_STRING: Cc1cc(O)cc(C)c1C[C@H](N)C(=O)N[C@@H]1CCN(C(=O)C2CC2)c2ccc(Cc3ccc4c(c3)OCCO4)cc21.O=C(O)C(F)(F)F
Efficacy: inactive
//
STRUCTURE_STRING: Cc1cc(O)cc(C)c1C[C@H](N)C(=O)N[C@@H]1CCN(C(=O)c2ccccc2)c2ccc(Cc3cnc4ccccc4c3)cc21.O=C(O)C(F)(F)F
Efficacy: inactive
//
STRUCTURE_STRING: Cc1cc(O)cc(C)c1C[C@H](N)C(=O)N[C@@H]1CCN(C(=O)c2ccccc2)c2ccc(CN3CCc4ccccc4C3)cc21.O=C(O)C(F)(F)F
Efficacy: inactive
//
STRUCTURE_STRING: Cc1cc(O)cc(C)c1C[C@H](N)C(=O)N[C@@H]1CCN(C(=O)C2CC2)c2ccc(CN3CCc4ccccc4C3)cc21.O=C(O)C(F)(F)F
Efficacy: inactive
//
STRUCTURE_STRING: CC(=O)N1CC[C@@H](NC(=O)[C@@H](N)Cc2c(C)cc(O)cc2C)c2cc(Cc3cnc4ccccc4c3)ccc21.O=C(O)C(F)(F)F
Efficacy: inactive
//
STRUCTURE_STRING: Cc1cc(O)cc(C)c1C[C@H](N)C(=O)N[C@@H]1CCN(S(C)(=O)=O)c2ccc(Cc3cc4ccccc4o3)cc21.O=C(O)C(F)(F)F
Efficacy: 61%

----------
Molecular target: Kappa-type opioid receptor (Homo sapiens)
Test: Agonist activity at human kappa opioid receptor expressed in CHO cell membranes assessed as stimulation of [35S]GTPgammaS binding to G protein incubated for 1 hr relative to U69,593
Format: functional
Activity calls are given as the source filed them. The calls are words filed in the database; no cut-off is given here.

STRUCTURE_STRING: Cc1cc(O)cc(C)c1C[C@H](N)C(=O)N[C@@H]1CCN(C(=O)c2ccccc2)c2ccc(Cc3cc4ccccc4o3)cc21.O=C(O)C(F)(F)F
ASSAYED_SYSTEM: Kappa-type opioid receptor (Homo sapiens)
Efficacy: inactive
//
STRUCTURE_STRING: Cc1cc(O)cc(C)c1C[C@H](N)C(=O)N[C@@H]1CCN(C(=O)c2ccccc2)c2ccc(Cc3ccc4ccccc4c3)cc21.O=C(O)C(F)(F)F
ASSAYED_SYSTEM: Kappa-type opioid receptor (Homo sapiens)
Efficacy: inactive
//
STRUCTURE_STRING: Cc1cc(O)cc(C)c1C[C@H](N)C(=O)N[C@@H]1CCN(S(C)(=O)=O)c2ccc(Cc3ccc4c(c3)OCCO4)cc21.O=C(O)C(F)(F)F
ASSAYED_SYSTEM: Kappa-type opioid receptor (Homo sapiens)
Efficacy: 39%
//
STRUCTURE_STRING: Cc1cc(O)cc(C)c1C[C@H](N)C(=O)N[C@@H]1CCN(S(C)(=O)=O)c2ccc(CN3CCc4ccccc4C3)cc21.O=C(O)C(F)(F)F
ASSAYED_SYSTEM: Kappa-type opioid receptor (Homo sapiens)
Efficacy: 51%
//
STRUCTURE_STRING: Cc1cc(O)cc(C)c1C[C@H](N)C(=O)N[C@@H]1CCN(S(C)(=O)=O)c2ccc(Cc3ccc4ccccc4c3)cc21.O=C(O)C(F)(F)F
ASSAYED_SYSTEM: Kappa-type opioid receptor (Homo sapiens)
Efficacy: inactive
//
STRUCTURE_STRING: CC(=O)N1CC[C@@H](NC(=O)[C@@H](N)Cc2c(C)cc(O)cc2C)c2cc(Cc3ccc4c(c3)OCCO4)ccc21.O=C(O)C(F)(F)F
ASSAYED_SYSTEM: Kappa-type opioid receptor (Homo sapiens)
Efficacy: inactive

----------
Reported values of logP for individual entries
Experiment: Lipophilicity, log P of the compound
Assay type: physicochemical
Conditions: octanol/water

STRUCTURE_STRING: Cc1cc(O)cc(C)c1C[C@H](N)C(=O)N[C@@H]1CCNc2ccc(CN3CCc4ccccc4C3)cc21.O=C(O)C(F)(F)F
logP: 3.7
//
STRUCTURE_STRING: Cc1cc(O)cc(C)c1C[C@H](N)C(=O)N[C@@H]1CCN(S(C)(=O)=O)c2ccc(Cc3ccc4ccccc4c3)cc21.O=C(O)C(F)(F)F
logP: 4.4
//
STRUCTURE_STRING: Cc1cc(O)cc(C)c1C[C@H](N)C(=O)N[C@@H]1CCNc2ccc(Cc3ccc4ccccc4c3)cc21
logP: 4.9
//
STRUCTURE_STRING: CC(=O)N1CC[C@@H](NC(=O)[C@@H](N)Cc2c(C)cc(O)cc2C)c2cc(CN3CCc4ccccc4C3)ccc21.O=C(O)C(F)(F)F
logP: 3.2
//
STRUCTURE_STRING: Cc1cc(O)cc(C)c1C[C@H](N)C(=O)N[C@@H]1CCN(S(C)(=O)=O)c2ccc(Cc3ccccc3)cc21.O=C(O)C(F)(F)F
logP: 3.3
//
STRUCTURE_STRING: Cc1cc(O)cc(C)c1C[C@H](N)C(=O)N[C@@H]1CCN(C(=O)C2CC2)c2ccc(Cc3ccc4c(c3)OCCO4)cc21.O=C(O)C(F)(F)F
logP: 3.7
//
STRUCTURE_STRING: Cc1cc(O)cc(C)c1C[C@H](N)C(=O)N[C@@H]1CCN(C(=O)C2CC2)c2ccc(Cc3cc4ccccc4o3)cc21.O=C(O)C(F)(F)F
logP: 4.5
//
STRUCTURE_STRING: CC(=O)N1CC[C@@H](NC(=O)[C@@H](N)Cc2c(C)cc(O)cc2C)c2cc(Cc3cnc4ccccc4c3)ccc21.O=C(O)C(F)(F)F
logP: 3.2
//
STRUCTURE_STRING: CC(=O)N1CC[C@@H](NC(=O)[C@@H](N)Cc2c(C)cc(O)cc2C)c2cc(Cc3cc4ccccc4o3)ccc21
logP: 3.9
//
STRUCTURE_STRING: Cc1cc(O)cc(C)c1C[C@H](N)C(=O)N[C@@H]1CCN(C(=O)c2ccccc2)c2ccc(Cc3cc4ccccc4o3)cc21.O=C(O)C(F)(F)F
logP: 5.2
//
STRUCTURE_STRING: CC(=O)N1CC[C@@H](NC(=O)[C@@H](N)Cc2c(C)cc(O)cc2C)c2cc(Cc3ccc4ccccc4c3)ccc21
logP: 4.5
//
STRUCTURE_STRING: Cc1cc(O)cc(C)c1C[C@H](N)C(=O)N[C@@H]1CCN(S(C)(=O)=O)c2ccc(Cc3cnc4ccccc4c3)cc21.O=C(O)C(F)(F)F
logP: 3.1
//
STRUCTURE_STRING: Cc1cc(O)cc(C)c1C[C@H](N)C(=O)N[C@@H]1CCN(S(C)(=O)=O)c2ccc(CN3CCc4ccccc4C3)cc21.O=C(O)C(F)(F)F
logP: 3.1
//
STRUCTURE_STRING: CC(=O)N1CC[C@@H](NC(=O)[C@@H](N)Cc2c(C)cc(O)cc2C)c2cc(Cc3ccccc3)ccc21
logP: 3.4
